Parameter ED50: see the listing below.
Test system: Cavia porcellus
methodSummary: Inhibition of PAF-induced bronchoconstriction in guinea pig after oral administration after two-hour pretreatment time
Type: functional
settings: read-out: ID50 (the source's name)
Express the result in mg/kg but write the number alone.

State ED50 (Cavia porcellus) of `Cc1nnc2n1-c1sc(C#CCn3c4ccccc4c4ccccc43)cc1C(c1ccccc1Cl)=NC2` .
0.02

Please look at `Cc1nnc2n1-c1sc(C#CCn3c(=O)n(CCN(C)C)c(=O)c4ccccc43)cc1C(c1ccccc1Cl)=NC2` and tell me its recorded ED50 on Cavia porcellus.
0.3

Fill in: ED50 on Cavia porcellus, entry `Cc1nnc2n1-c1ccc(C#CCN3C(=O)CCc4ccccc43)cc1C(c1ccccc1F)=N[C@H]2C`
0.1

Retrieve ED50 on Cavia porcellus; query `Cc1nnc2n1-c1sc(C#CCn3c4c(c5ccccc53)CCCCC4)cc1C(c1ccccc1Cl)=NC2`
0.004

# assay system Cavia porcellus: give ED50 of `Cc1nnc2n1-c1sc(C#CCN3C(=O)CCc4ccc(Cl)cc43)cc1C(c1ccccc1Cl)=NC2`
0.1

Further cases:
GET ED50 | system: Cavia porcellus | item: `Cc1nnc2n1-c1sc(C#CCN3C(=O)Cn4ccc5c(Cl)ccc3c54)cc1C(c1ccccc1Cl)=NC2`
0.003

Give measured ED50 for `Cc1nnc2n1-c1sc(C#CCn3c(=O)c4cc(Cl)ccc4c4ccc(Cl)cc43)cc1C(c1ccccc1Cl)=NC2` (Cavia porcellus).
0.03

Given `CCCCC/C(=C\C=C\C(=O)N[C@H](C)CCCc1cccnc1)c1ccc(OC)cc1` , report its ED50 on Cavia porcellus.
4
